Cited source: patent US7723070B2

- System: B834(DE3) or CAG18491 hosts with pQE15/pREP4 or pQE15-MRS/pREP4
- ASSAY: Translational activity: mDHFR synthesis, statements covering several bacterial hosts (with pQE15 or pQE15-MRS)
- Assay type: cell-based, E. coli
- CONDITION_NOTES: amino acids at 60 mg/liter, both bacterial hosts
MEASURED_PROPERTY: target protein mDHFR in SDS-PAGE

| MOLECULE | MEASURED_RESULT |
| --- | --- |
| C#CCC(N)C(=O)O (centres unmarked) [Analogue 13, propargylglycine] | not observed |
| NC(CCCC(F)(F)F)C(=O)O (racemic) [Analogue 6, DL-6,6,6-trifluoro-2-amino hexanoic acid] | not observed |
| C/C=C\CC(N)C(=O)O (racemic) [Analogue 4, cis-2-amino-4-hexenoic acid] | not observed |
| C=CCC(N)C(=O)O (centres unmarked) [Analogue 12, allylglycine] | not observed |
| CCCC[C@H](N)C(=O)O [Analogue 9, L-norleucine] | detected |
| CCC[C@H](N)C(=O)O [Analogue 8, L-norvaline] | not observed |
| C=CCOC[C@H](N)C(=O)O (racemic) [Analogue 10, o-allylserine] | not observed |
| CSCC[C@H](N)C(=O)O [Analogue 1, L-methionine, reference compound] | detected |
| C#CCCC(N)C(=O)O (racemic) [Analogue 3, DL-homopropargylglycine] | detected |
| CCCCCC(N)C(=O)O (racemic) [Analogue 7, DL-2-aminoheptanoic acid] | not observed |
| C=CCCC(N)C(=O)O (racemic) [Analogue 2, DL-2-amino-5-hexenoic acid] | detected |
